target: ROR1 (antigen of the KD determination and of the Octet dissociation measurement) (UniProt Q01973 30-403, limits assumed); assay: Octet, antigen form not stated
Sequence (Q01973 30-403 limits assumed): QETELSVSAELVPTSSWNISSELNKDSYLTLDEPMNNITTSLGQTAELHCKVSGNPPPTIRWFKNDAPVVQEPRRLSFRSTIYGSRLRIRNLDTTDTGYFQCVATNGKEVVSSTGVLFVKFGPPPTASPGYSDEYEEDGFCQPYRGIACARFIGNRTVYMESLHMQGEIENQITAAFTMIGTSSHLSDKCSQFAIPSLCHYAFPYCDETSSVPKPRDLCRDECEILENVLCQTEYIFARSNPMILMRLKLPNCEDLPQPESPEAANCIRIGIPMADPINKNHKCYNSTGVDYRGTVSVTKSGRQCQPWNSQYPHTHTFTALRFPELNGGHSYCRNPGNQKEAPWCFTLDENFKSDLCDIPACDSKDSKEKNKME
Response overview
Could you keep your reply to the number by itself?

Guide cases for Response, answers given:
Binder | Assay value
PR002567 (antibody, human IgG1, kappa, V domains shown, PR001354 variant: VH G55A; hIgG1; also called anti-ROR1 1015M2-C9(H: G55A) hIgG1) VH: QVQLVQSGGGVVQPGRSLRLSCAASGFTFSSYGMHWVRQAPGKGLEWVAIMWYDASDKDYADSVKGRFTISRDTSKNTLYLQMNSLRAEDTAVYYCAREQARSFDLWGRGTLVTVSS VL: DIVMTQSPSSLSASVGDRVTITCRASQTINNWLAWYQQKPGKAPKLLIYKASSLESGVPSRFSGSGSGTEFTLTISSLQPDDFATYYCQQYNSYSPMYTFGQGTKVEIKR | 0.707
PR002576 (antibody, human IgG1, kappa, V domains shown, PR001364 variant: VH D54E, VL S93A; hIgG1; also called anti-ROR1 1015M3-D8(H: D54E; L: S93A) hIgG1) VH: EVQLLESGGGVVQPGRSLRLSCAASGFTFSSFGMHWVRQAPGKGLEWVAVIWYEGSDKDYADSVKGRFTISRDTSKNTLYLQMNSLRAEDTAVYYCAREQARSFDLWGRGTLVTVSS VL: DIVMTQSPSTLSASVGDRVTITCRASQTINNWLAWYQQKPGKAPKLLIYKASSLESGVPSRFSGSGSGTEFTLTISSLQPDDFATYYCQQYNAYSPMYTFGQGTKVEIKR | 0.866
PR002570 (antibody, human IgG1, kappa, V domains shown, PR001356 variant: VH D54E; hIgG1; also called anti-ROR1 1015M2-E6(H: D54E) hIgG1) VH: QVQLVESGGGVVQPGRSLRLSCAASGFTFSSYGMHWVRQAPGKGLEWVAVAWYEGVSEDYADSVKGRFTISRDNAKNTLYLQMNSLRAEDTAVYYCAREQARSFDLWGRGTLVTVSS VL: DIVMTQSPSTLSASVGDRVTITCRASQSINNWLAWYQQKPGKAPKLLIYKASSLESGVPSRFSGSGSGTEFTLTISSLQPDDFATYYCQQYKSYSPMYTFGQGTKVEIKR | 0.472

Form: binder = PR002571 (antibody, human IgG1, kappa, V domains shown, PR001356 variant: VH G55A; hIgG1; also called anti-ROR1 1015M2-E6(H: G55A) hIgG1) VH: QVQLVESGGGVVQPGRSLRLSCAASGFTFSSYGMHWVRQAPGKGLEWVAVAWYDAVSEDYADSVKGRFTISRDNAKNTLYLQMNSLRAEDTAVYYCAREQARSFDLWGRGTLVTVSS VL: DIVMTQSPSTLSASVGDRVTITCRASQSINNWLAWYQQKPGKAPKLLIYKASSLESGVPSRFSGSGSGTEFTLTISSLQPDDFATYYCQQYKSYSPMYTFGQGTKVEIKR ; Response = 0.638

# Response (binder: PR002583 (antibody, human IgG1, kappa, V domains shown, PR001369 variant: VH D54E, VL N92Q; hIgG1; also called anti-ROR1 1015M3-H10(H: D54E; L: N92Q) hIgG1) VH: QVQLVESGGGVVQPGRSLRLSCAASGFTFSNYGIHWVRQAPGKGLEWVAIMWYEGSNTDYADSVKGRFTISRDTSKNTLFLQMNSLRAEDTAVYYCAREQARSFDLWGRGTLVTVSS VL: DIVMTQSPSTLSASVGDRVTITCRASQTINNWLAWYQQKPGKAPKLLIYKASSLESGVPSRFSGSGSGTEFTLTISSLQPDDFATYYCQQYQSYSPMYTFGQGTKVEIKR ) is 0.672

Note to self: Response recorded for PR002564 (antibody, human IgG1, kappa, V domains shown, PR001354 variant: VH D54E; hIgG1; also called anti-ROR1 1015M2-C9(H: D54E) hIgG1) VH: QVQLVQSGGGVVQPGRSLRLSCAASGFTFSSYGMHWVRQAPGKGLEWVAIMWYEGSDKDYADSVKGRFTISRDTSKNTLYLQMNSLRAEDTAVYYCAREQARSFDLWGRGTLVTVSS VL: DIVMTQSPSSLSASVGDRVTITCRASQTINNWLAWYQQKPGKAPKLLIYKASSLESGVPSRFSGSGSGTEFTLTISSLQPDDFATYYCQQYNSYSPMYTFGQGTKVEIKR was 0.748

The binder listed as PR002569 (antibody, human IgG1, kappa, V domains shown, PR001354 variant: VH G55A, VL S93A; hIgG1; also called anti-ROR1 1015M2-C9(H: G55A; L: S93A) hIgG1) VH: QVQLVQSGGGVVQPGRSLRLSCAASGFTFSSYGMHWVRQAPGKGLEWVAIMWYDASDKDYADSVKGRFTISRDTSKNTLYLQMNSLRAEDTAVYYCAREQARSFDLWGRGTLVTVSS VL: DIVMTQSPSSLSASVGDRVTITCRASQTINNWLAWYQQKPGKAPKLLIYKASSLESGVPSRFSGSGSGTEFTLTISSLQPDDFATYYCQQYNAYSPMYTFGQGTKVEIKR has a reported Response of 0.614

Sure, the documented Response for PR002566 (antibody, human IgG1, kappa, V domains shown, PR001354 variant: VH D54E, VL S93A; hIgG1; also called anti-ROR1 1015M2-C9(H: D54E; L: S93A) hIgG1) VH: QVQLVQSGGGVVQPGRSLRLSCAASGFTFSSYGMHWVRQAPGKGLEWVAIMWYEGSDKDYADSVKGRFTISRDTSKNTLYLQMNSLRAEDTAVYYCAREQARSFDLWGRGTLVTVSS VL: DIVMTQSPSSLSASVGDRVTITCRASQTINNWLAWYQQKPGKAPKLLIYKASSLESGVPSRFSGSGSGTEFTLTISSLQPDDFATYYCQQYNAYSPMYTFGQGTKVEIKR is 0.663

Record summary for PR002581 (antibody, human IgG1, kappa, V domains shown, PR001369 variant: VL S93A; hIgG1; also called anti-ROR1 1015M3-H10(L: S93A) hIgG1) VH: QVQLVESGGGVVQPGRSLRLSCAASGFTFSNYGIHWVRQAPGKGLEWVAIMWYDGSNTDYADSVKGRFTISRDTSKNTLFLQMNSLRAEDTAVYYCAREQARSFDLWGRGTLVTVSS VL: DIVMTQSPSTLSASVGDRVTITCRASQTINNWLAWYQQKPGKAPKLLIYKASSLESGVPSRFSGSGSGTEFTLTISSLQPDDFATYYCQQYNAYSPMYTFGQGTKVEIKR : reported Response = 0.974

Please fill in: Response reported for PR002572 (antibody, human IgG1, kappa, V domains shown, PR001364 variant: VL N92Q; hIgG1; also called anti-ROR1 1015M3-D8(L: N92Q) hIgG1) VH: EVQLLESGGGVVQPGRSLRLSCAASGFTFSSFGMHWVRQAPGKGLEWVAVIWYDGSDKDYADSVKGRFTISRDTSKNTLYLQMNSLRAEDTAVYYCAREQARSFDLWGRGTLVTVSS VL: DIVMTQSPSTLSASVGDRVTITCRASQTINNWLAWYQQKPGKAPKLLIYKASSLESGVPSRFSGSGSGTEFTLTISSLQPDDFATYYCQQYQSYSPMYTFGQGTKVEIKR = 0.606
